# System: T1, HLA-A2 molecules on T2 cells (human)
# T1 construct: whole, on cells; MHC class I molecule on the surface of T2 cells
# Experimental details: T2 cell-binding assay, flow cytometry of HLA-A2 on T2 cells, peptide 25 µg/mL
# Source text: The T2 binding values are expressed in mean fluorescence intensity. The values in parentheses are fold increases as compared with the negative control (CAP-7 peptide).
The threshold is inclusive: T2 Binding (mean fluorescence intensity) of exactly 300 MFI counts as 1; values below receive -1.

Known results for binders:
Query: Is T2 Binding (mean fluorescence intensity) for SLSYTNPAV (Synthetic control peptide, purity >95%; also called positive control peptide) [MUC-1 (P1240) peptide] at or above 300 MFI?
Response: 1

Query: hey, is T2 Binding (mean fluorescence intensity) for this one >= 300 MFI? ALLSASWAV (Synthetic peptide, purity >95%; positions counted on the NGEP long form (L)) [NGEP peptide P170 (L)]
Response: -1

Query: Exam item: decide whether the reported T2 Binding (mean fluorescence intensity) for LLAIRLWAV (Synthetic peptide, purity >95%; positions counted on the NGEP long form (L)) [NGEP peptide P846 (L)] is at least 300 MFI.
Response: -1

Query: Is reported T2 Binding (mean fluorescence intensity) greater than or equal to 300 MFI here: ILFEILAKT (Synthetic peptide, purity >95%; positions counted on the NGEP long form (L)) [NGEP peptide P258 (L)]
Response: -1

--- query ---
Query: Could you please find out whether VLLEVVPDV (Synthetic peptide, purity >95%; positions counted on the NGEP long form (L)) [NGEP peptide P215 (L)] has T2 Binding (mean fluorescence intensity) that meets 300 MFI or exceeds it?
Response: 1
